Ref: paper PMC8531348

- experimental-target: α-glucosidase enzyme (from Saccharomyces cerevisiae, EC3.2.1.20) (Saccharomyces cerevisiae, UniProt P53341)
- Construct: purchased Sigma Chemical Co. (St. Louis, USA)
- Sequence (P53341 whole entry): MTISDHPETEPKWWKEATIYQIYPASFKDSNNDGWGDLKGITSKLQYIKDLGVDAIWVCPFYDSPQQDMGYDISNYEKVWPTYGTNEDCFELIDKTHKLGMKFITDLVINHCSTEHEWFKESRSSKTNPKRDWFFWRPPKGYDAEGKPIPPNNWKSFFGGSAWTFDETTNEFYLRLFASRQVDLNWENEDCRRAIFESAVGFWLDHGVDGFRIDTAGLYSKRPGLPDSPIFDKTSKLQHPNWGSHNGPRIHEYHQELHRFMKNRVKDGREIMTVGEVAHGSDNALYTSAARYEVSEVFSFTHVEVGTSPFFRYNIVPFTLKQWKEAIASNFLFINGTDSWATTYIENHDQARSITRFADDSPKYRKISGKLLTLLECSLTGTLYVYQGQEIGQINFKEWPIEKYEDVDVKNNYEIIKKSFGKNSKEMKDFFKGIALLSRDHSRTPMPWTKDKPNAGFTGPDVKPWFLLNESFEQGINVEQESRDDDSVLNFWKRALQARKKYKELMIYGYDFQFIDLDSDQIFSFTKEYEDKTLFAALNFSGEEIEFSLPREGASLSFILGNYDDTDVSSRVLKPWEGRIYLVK
- assay-procedure: biochemical
- Type: biochemical
observable: IC50

Tell us which IC50 value is on record for COc1ccc(-c2nn(-c3ccc(C)cc3)cc2C=NNC(=O)c2cc3ccccc3o2)cc1 [8l] 54.7 µM

Tell us which IC50 value is on record for O=C(NN=Cc1cn(-c2ccccc2)nc1-c1ccc(Cl)cc1)c1cc2ccccc2o1 [8g] 125 µM

Tell us which IC50 value is on record for O=C(NN=Cc1cn(-c2ccccc2)nc1-c1ccccc1)c1cc2ccccc2o1 [8a] 141 µM

Tell us which IC50 value is on record for Cc1ccc(-n2cc(C=NNC(=O)c3cc4ccccc4o3)c(-c3ccccc3)n2)cc1 [8j] 157 µM

Tell us which IC50 value is on record for Cc1ccc(-c2nn(-c3ccc(C)cc3)cc2C=NNC(=O)c2cc3ccccc3o2)cc1 [8k] 116 µM

Tell us which IC50 value is on record for Cc1ccc(-c2nn(-c3ccccc3)cc2C=NNC(=O)c2cc3ccccc3o2)cc1 [8b] 108 µM

Tell us which IC50 value is on record for COc1ccc(-c2nn(-c3ccccc3)cc2C=NNC(=O)c2cc3ccccc3o2)cc1 [8c] 100 µM

Tell us which IC50 value is on record for Cc1ccc(-n2cc(C=NNC(=O)c3cc4ccccc4o3)c(-c3ccc(Br)cc3)n2)cc1 [8n] 95.6 µM

Tell us which IC50 value is on record for O=C(NN=Cc1cn(-c2ccccc2)nc1-c1ccc(C(F)(F)F)cc1)c1cc2ccccc2o1 [8i] 102 µM

====

I'd appreciate it if you could supply melting point values for the items below.

Tell us which melting point value is on record for Cc1ccc(-n2cc(C=NNC(=O)c3cc4ccccc4o3)c(-c3ccccc3)n2)cc1 255 to 256 °C

Tell us which melting point value is on record for O=C(NN=Cc1cn(-c2ccccc2)nc1-c1ccc(Cl)cc1)c1cc2ccccc2o1 241 to 243 °C

Tell us which melting point value is on record for O=C(NN=Cc1cn(-c2ccccc2)nc1-c1ccc(C(F)(F)F)cc1)c1cc2ccccc2o1 217 to 218 °C

Tell us which melting point value is on record for O=C(NN=Cc1cn(-c2ccccc2)nc1-c1ccc(Br)cc1)c1cc2ccccc2o1 243 to 245 °C

Tell us which melting point value is on record for Cc1ccc(-c2nn(-c3ccccc3)cc2C=NNC(=O)c2cc3ccccc3o2)cc1 234 to 235 °C

====

- experimental-target: α-glucosidase enzyme (from Saccharomyces cerevisiae, EC3.2.1.20) (Saccharomyces cerevisiae)
- Construct: purchased Sigma Chemical Co. (St. Louis, USA)
- assay-procedure: biochemical
- Type: biochemical
- Experimental: The α-glucosidase enzyme (from Saccharomyces cerevisiae, EC3.2.1.20) was used to evaluate the α-glucosidase inhibitory activity. […] Therefore, α-glucosidase from yeast is extensively used for the preliminary screening of α-glucosidase inhibitors[47],[48]. […] The percentage of enzyme inhibition for each entry was calculated using the following formula: […]
For each record, check the reported IC50: if it is below 100 µM write 1, else write -1.

State whether 100 µM exceeds IC50 recorded for Cc1ccc(-n2cc(C=NNC(=O)c3cc4ccccc4o3)c(-c3ccc(O)cc3)n2)cc1 . -1

State whether 100 µM exceeds IC50 recorded for Cc1ccc(-n2cc(C=NNC(=O)c3cc4ccccc4o3)c(-c3ccc(Cl)cc3)n2)cc1 . -1

State whether 100 µM exceeds IC50 recorded for O=C(NN=Cc1cn(-c2ccccc2)nc1-c1ccc(F)cc1)c1cc2ccccc2o1 . -1

State whether 100 µM exceeds IC50 recorded for O=C(N/N=C/c1cn(-c2ccccc2)nc1-c1ccc(O)cc1)c1cc2ccccc2o1 . -1

State whether 100 µM exceeds IC50 recorded for O=C(NN=Cc1cn(-c2ccccc2)nc1-c1ccc(Br)cc1)c1cc2ccccc2o1 . 1
